- target: acyl-CoA:cholesterol acyltransferase (ACAT)
- protocolSummary: in vitro ACAT inhibition (LAI): radiolabeled cholesterol oleate formed from radiolabeled oleic acid in rat liver microsomes
- Assay type: biochemical
- conditionSet: read-out: LAI (IC50, concentration of test compound required to inhibit the activity of the enzyme by 50%)
Quick rule for you: IC50 under 1000 nM gets 1 (yes), anything else gets 0 (no).

Some solved cases for reference:
COP(=O)(Cc1c(C(C)C)cc(C(C)C)cc1C(C)C)NC(=O)Cc1c(C(C)C)cccc1C(C)C (stereo not drawn) [iPr H OCH3 CH2]    1 (yes)
COP(=O)(Cc1c(C(C)C)cccc1C(C)C)NC(=O)Cc1c(C(C)C)cc(C(C)C)cc1C(C)C (stereo not drawn) [H iPr OCH3 CH2]    0 (no)
COP(=O)(NC(=O)Cc1c(C(C)C)cc(C(C)C)cc1C(C)C)Oc1c(C(C)C)cccc1C(C)C (stereo not drawn) [iPr H OCH3 O]    0 (no)

Problem: Lab note: IC50 threshold 1000 nM. Does this compound come in strictly under it? COP(=O)(NC(=O)Cc1c(C(C)C)cc(C(C)C)cc1C(C)C)Oc1c(C(C)C)cc(Cl)cc1C(C)C (stereo not drawn) [Cl iPr OCH3 O]
Result: 0 (no)

Problem: # check: IC50 < 1000 nM for COP(=O)(Cc1c(C(C)C)cc(C(C)C)cc1C(C)C)NC(=O)Cc1c(C(C)C)cc(C(C)C)cc1C(C)C (stereo not drawn) [iPr iPr OCH3 CH2]
Result: 1 (yes)

Problem: Field: below-cutoff. Rule: recorded IC50 strictly less than 1000 nM. Subject: CC(C)c1cc(C(C)C)c(CC(=O)NP(=O)(Oc2c(C(C)C)cccc2C(C)C)c2ccccc2)c(C(C)C)c1 (stereo not drawn) [H iPr Ph O]
Result: 0 (no)
